test: yeast display, Sf9 membrane polyspecificity reagent, FACS + sequencing; frameworks hold sequencing errors
Measurement Type: polyreactivity (PSR sort gate)

Residues	polyreactivity (PSR sort gate)
QVQLVESGGGLVQAGGSLRLSCAASGLTFKSYAMGWYRQAPGKETELVAAISWRGGRTYYADSVKGRFTISRDNAKNTVYLQMNSLKPEDTAVYYCNARSQQWWLSRYNYWGQGTQVTVSS	high polyreactivity
QVQLVESGGGLVQAGGSLRLSCAASGRTFLVNAMGWSRQAPGKERELVAAISQRGGSTDYADSVKGRFTISRDNAKNTVYLQMNSLKPEDTAVYYCAVRWGYLYDYWGQGTQVTVSS	low polyreactivity
QVQLLESGGGLVQAGGSLRLSCASSGRTFRSYGMGWYRQAPGKERELVAVISWRDGSTFYADSVKGRFTISRDNAKNTVYLQMNSLKPEDTAVYYCNARGDVIVTPPKFSFKYEYWGQGTQVTVSS	low polyreactivity
HVQHVESGGGLVQAGGSLRLSCAASGRIFRPNAMGRYRQAPGKERELVAAITSNGGRTYYADSVKGRFTISRDNAKTTVYLQMTSQKPEDTAVYYCNAAPFRSGYGYWGQGTQVNVSS	high polyreactivity
QVQLVESGGGLVQAGGSLRLSCAASGRIFGGYAMGWYRQAPGKERELVAVISGRGGSTYYADSVKGRFTISRDNAMNTVYLQMNSLKPEDTAVYYCTVYRRIQRYGPQSYDYWGQGTQVTVSS	high polyreactivity
QVQLVESAGGLVQAGGSLRLSCAASGYIFGVYAMGWYRQAPGKERELVAAISYGVGSTYYADSVKGRFTISRDNAKNTVYLQMNSLKPEDTAVYYCASDVFFYVYEAYLLYYWGQGTQVTVSS	low polyreactivity

Need polyreactivity (PSR sort gate) for each of these sequences.
1. QVQLVESGGGLVQAGGSLRLSCAASGRTFYRKAMGWYRQAPGKERELVAAITYGGGSTYYADSVKGRFTISRDNAKNTVYLQMNSLKPEDTAVYYCNALRNVRTGRTQVLSYYWGQGTQVTVSS
2. QVQLVESGGGLVQAGCSLRLSCAASGITFYGNAMGSYRQAPGKERELVAAISRRGGSTYYADSVKGRFTSSRDNAKNSVYLQMISLKPEDTAVYYCAARYYSWSFRFDYWGQGTQLTVSS
3. QVQLVESGGGLVQAGGSLRLSCAASGSIFSGYVMGWYRQAPGKERELVAAITWSGGRTYYADSVKGRFTISRDNAKNTVYLQMNSLKPEDTAVYYCAKRKIKSSGYYYWGQGTQVTVSS
4. QVQLVESGGGLVQAGGSLGLNCAASGFTFRVNAMGLYSQAPGKEREFVAAITASGGSTYYADSVKGRFTISRDNAKNTVYLLMNSLKPVDTAVYYCAADWWIYWYPDTGDYWGQRTQVTVSS
5. QVQLVESAGGLVQAGGRLRLSCAASGFIFYRYAMGWYRQAPGKERELVAAISRNGGSTYYADSVKGRFTISRDNAKNTVYLQRNILKPEDTAVYYCNVDYRLVRIRVDYEYWGQGTQVTVSS

1. high polyreactivity
2. high polyreactivity
3. high polyreactivity
4. high polyreactivity
5. high polyreactivity
